tested on: PPARg:RXRa 270nM:90nM, anti-RXR (NR concentration 270 nM, RXRa partner concentration 90 nM); assay: PBM binding z-score (relative to random genomic background probes); higher = stronger binding; sequences stand for … in GC…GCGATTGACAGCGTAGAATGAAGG
endpointName: PBM binding z-score
Could you keep your reply to the number by itself?

QUERY: Retrieve PBM binding z-score measured for AGAATGAGGTTATTAAGATTAGGGAATTGCGGTC and print it.
RESULT: 1.57

QUERY: Query PBM binding z-score for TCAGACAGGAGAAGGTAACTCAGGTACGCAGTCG
RESULT: 1.78

QUERY: Please give the documented PBM binding z-score of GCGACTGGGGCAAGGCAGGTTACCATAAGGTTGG
RESULT: 0.49

QUERY: Look up and report measured PBM binding z-score for this entry: TAGCCTAGGTCTTGCGGGCCAGTATAGTGTCGGC
RESULT: -0.775

QUERY: Give recorded PBM binding z-score. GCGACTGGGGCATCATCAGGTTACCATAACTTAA
RESULT: 0.894

QUERY: Determine from records and report PBM binding z-score for GGATATAGGTAATACAAGGTGAAAGTCCGATTGT
RESULT: 2.51

QUERY: Fill in PBM binding z-score for record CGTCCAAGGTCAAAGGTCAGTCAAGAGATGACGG
RESULT: 8.99

QUERY: Answer with reported PBM binding z-score of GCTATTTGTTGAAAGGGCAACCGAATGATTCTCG
RESULT: 1.88

QUERY: Please give the documented PBM binding z-score of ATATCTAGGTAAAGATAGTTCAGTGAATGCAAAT
RESULT: 1.99

QUERY: Check the records and state PBM binding z-score for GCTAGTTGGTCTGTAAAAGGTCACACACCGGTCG
RESULT: 4.63

QUERY: Return the recorded PBM binding z-score value; entry: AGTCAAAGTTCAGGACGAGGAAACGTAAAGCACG
RESULT: 5.02

QUERY: // fetch PBM binding z-score given entry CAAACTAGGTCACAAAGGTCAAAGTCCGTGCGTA
RESULT: 8.31

---

test system: LXRa:RXRa (NR concentration 270 nM, RXRa partner concentration 90 nM); test: PBM binding z-score (relative to random genomic background probes); higher = stronger binding; sequences stand for … in GC…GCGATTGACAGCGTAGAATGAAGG
Binned PBM binding z-score; ranges: bucket 1 (below 2), bucket 2 (2 to below 4), bucket 3 (4 or more)

QUERY: Which bin should I file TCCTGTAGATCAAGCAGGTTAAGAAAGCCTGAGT under?
RESULT: bucket 1

QUERY: Band for the recorded PBM binding z-score of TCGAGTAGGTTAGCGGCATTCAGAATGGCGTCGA ?
RESULT: bucket 1

QUERY: Which PBM binding z-score band matches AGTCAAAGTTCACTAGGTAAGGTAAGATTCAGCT ?
RESULT: bucket 3

QUERY: Band of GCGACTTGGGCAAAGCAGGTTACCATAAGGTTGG ?
RESULT: bucket 1

QUERY: Hi, small favor: classify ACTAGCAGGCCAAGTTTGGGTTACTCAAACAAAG by its PBM binding z-score when you get a moment.
RESULT: bucket 1

QUERY: Given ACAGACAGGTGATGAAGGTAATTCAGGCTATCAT , name the class its PBM binding z-score places it in.
RESULT: bucket 1

QUERY: Would you mind sorting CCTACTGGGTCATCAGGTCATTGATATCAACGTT into the appropriate category?
RESULT: bucket 2

QUERY: // return the class label for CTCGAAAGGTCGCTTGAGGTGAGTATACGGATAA
RESULT: bucket 2

QUERY: Please indicate the class for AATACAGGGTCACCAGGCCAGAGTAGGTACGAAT based on its PBM binding z-score.
RESULT: bucket 3

QUERY: Please indicate the class for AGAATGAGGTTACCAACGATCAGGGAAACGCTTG based on its PBM binding z-score.
RESULT: bucket 3

QUERY: State the class of the sequence shown: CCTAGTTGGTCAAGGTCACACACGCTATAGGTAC
RESULT: bucket 3

QUERY: Lab log: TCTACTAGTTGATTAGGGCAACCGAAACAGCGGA — assign PBM binding z-score category
RESULT: bucket 1

QUERY: Which class is correct for the following sequence? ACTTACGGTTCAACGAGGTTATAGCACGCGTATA
RESULT: bucket 2

QUERY: Textbook exercise: identify the category of the sequence given here, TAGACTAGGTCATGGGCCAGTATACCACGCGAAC , according to its measured value.
RESULT: bucket 2

QUERY: Which class is correct for the following sequence? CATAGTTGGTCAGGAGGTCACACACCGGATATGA
RESULT: bucket 2

QUERY: Which PBM binding z-score category applies to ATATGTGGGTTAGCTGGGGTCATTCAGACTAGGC here?
RESULT: bucket 3

QUERY: Assign a bin to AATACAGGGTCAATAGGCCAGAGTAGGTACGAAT
RESULT: bucket 3

QUERY: Hey, which category is CGAACTAGGTCATCCAGGAGAGTGAATACATTGA in, do you know?
RESULT: bucket 2

QUERY: Lab note: sort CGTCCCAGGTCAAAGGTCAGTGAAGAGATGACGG into the matching PBM binding z-score band.
RESULT: bucket 3

QUERY: Please report the category associated with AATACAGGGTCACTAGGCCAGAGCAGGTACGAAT , nothing else.
RESULT: bucket 3

QUERY: Which band does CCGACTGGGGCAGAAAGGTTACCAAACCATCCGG fall in?
RESULT: bucket 1

QUERY: Into which bin does this sequence go? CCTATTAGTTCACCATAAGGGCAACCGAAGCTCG
RESULT: bucket 2

QUERY: Which bin should I file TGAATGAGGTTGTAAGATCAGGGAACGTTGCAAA under?
RESULT: bucket 1

QUERY: Categorize the following entry: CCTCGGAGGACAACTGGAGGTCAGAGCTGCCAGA
RESULT: bucket 2

QUERY: Which bin, given its PBM binding z-score, does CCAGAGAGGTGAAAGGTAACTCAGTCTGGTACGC occupy?
RESULT: bucket 1

---

tested on: RARa homodimer (NR concentration 270 nM); assay: PBM binding z-score (relative to random genomic background probes); higher = stronger binding; sequences stand for … in GC…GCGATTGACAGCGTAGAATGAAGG
endpointName: PBM binding z-score
Answer field: number only, no words.

QUERY: Supply PBM binding z-score value. Item: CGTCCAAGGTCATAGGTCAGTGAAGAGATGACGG
RESULT: 1.13

QUERY: Report measured PBM binding z-score; entry is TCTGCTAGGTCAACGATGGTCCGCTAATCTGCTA
RESULT: -0.449

QUERY: Indicate its recorded PBM binding z-score; the sequence in question is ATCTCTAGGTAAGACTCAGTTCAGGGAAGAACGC
RESULT: 1.28

QUERY: Supply measured PBM binding z-score of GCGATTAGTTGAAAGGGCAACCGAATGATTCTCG in your reply.
RESULT: -0.197

QUERY: Please report PBM binding z-score for the following sequence: TCTCTTAGTTGATTAGGGCAACCGAAACAGCGGA
RESULT: 0.846

QUERY: Identify measured PBM binding z-score associated with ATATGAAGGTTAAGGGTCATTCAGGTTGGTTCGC
RESULT: 1.13

QUERY: Indicate the recorded PBM binding z-score value for this sequence: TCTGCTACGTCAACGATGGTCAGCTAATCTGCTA
RESULT: -1.62

QUERY: Give PBM binding z-score for the following sequence: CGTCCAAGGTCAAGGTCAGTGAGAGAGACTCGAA
RESULT: 1.59

QUERY: Given the sequence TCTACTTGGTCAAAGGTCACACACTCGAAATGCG , write its reported PBM binding z-score.
RESULT: 4.11

QUERY: Please report the measured PBM binding z-score for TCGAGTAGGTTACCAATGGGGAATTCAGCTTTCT
RESULT: -1.2

QUERY: Complete the entry with PBM binding z-score for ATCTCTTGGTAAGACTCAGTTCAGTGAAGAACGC
RESULT: 1.84

QUERY: Using known records, supply PBM binding z-score for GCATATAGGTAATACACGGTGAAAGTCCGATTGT
RESULT: 0.666

---

test system: PPARg:RXRa 30nM:10nM, anti-RXR (NR concentration 30 nM, RXRa partner concentration 10 nM); test: PBM binding z-score (relative to random genomic background probes); higher = stronger binding; sequences stand for … in GC…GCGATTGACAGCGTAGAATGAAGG
PBM binding z-score vs 0.6: at or above is y, below is n.

QUERY: Does the reported PBM binding z-score for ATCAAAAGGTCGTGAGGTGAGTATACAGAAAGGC fall at or above the 0.6 mark?
RESULT: y

QUERY: Record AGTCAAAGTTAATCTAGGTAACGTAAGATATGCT ; criterion: PBM binding z-score no lower than 0.6. Met?
RESULT: y

QUERY: API: above_or_equal(metric=PBM binding z-score, cutoff=0.6) for item TGAATGAGGTTATAAGATCCGGGAACGTTGCAAA
RESULT: y

QUERY: Could you tell me if the measured PBM binding z-score of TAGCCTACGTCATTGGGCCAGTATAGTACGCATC reaches 0.6 or more?
RESULT: n

QUERY: Could you tell me if the measured PBM binding z-score of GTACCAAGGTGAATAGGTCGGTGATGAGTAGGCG reaches 0.6 or more?
RESULT: n

QUERY: Given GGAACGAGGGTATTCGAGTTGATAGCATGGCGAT , state whether its PBM binding z-score is at least 0.6.
RESULT: n

QUERY: Has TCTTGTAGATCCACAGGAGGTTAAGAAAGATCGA a recorded PBM binding z-score greater than or equal to 0.6?
RESULT: y

QUERY: Decide: is the reported value of PBM binding z-score for GCTTACGGGCCAAAGGTTATAGCATGAATAGAAT equal to or greater than 0.6?
RESULT: y

QUERY: Is the recorded value of PBM binding z-score equal to or greater than 0.6 for this sequence? AATCGGAGGACAAAGGTCAGAGCTACGCCAGTGA
RESULT: y

QUERY: Does the reported PBM binding z-score for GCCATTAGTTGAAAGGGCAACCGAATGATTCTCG fall at or above the 0.6 mark?
RESULT: y

QUERY: State whether the measured PBM binding z-score reaches 0.6, counting equality as reaching it, for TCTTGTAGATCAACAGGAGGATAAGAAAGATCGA
RESULT: y

QUERY: Reported PBM binding z-score reaches at least 0.6 for TCTTGTAGATCAAGCAGGGTAAGAAAGCCTGAGT ?
RESULT: y

QUERY: Threshold query (PBM binding z-score >= 0.6) on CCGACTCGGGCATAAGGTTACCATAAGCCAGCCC
RESULT: n

QUERY: Has TGGAGTAGGTTAGTCGGGGCATTCAGCCAACATA a recorded PBM binding z-score greater than or equal to 0.6?
RESULT: n

QUERY: Would you say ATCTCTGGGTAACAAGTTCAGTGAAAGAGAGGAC shows PBM binding z-score at minimum 0.6?
RESULT: y

QUERY: # bool: PBM binding z-score of GGAACGAGGGCAGAGTTGATAGCATCTGTCGACG >= 0.6
RESULT: y

QUERY: State whether the measured PBM binding z-score reaches 0.6, counting equality as reaching it, for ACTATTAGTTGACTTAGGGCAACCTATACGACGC
RESULT: n

QUERY: Hello, I need to know if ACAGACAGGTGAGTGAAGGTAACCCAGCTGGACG has measured PBM binding z-score not below 0.6. Thanks!
RESULT: n

QUERY: Check the entry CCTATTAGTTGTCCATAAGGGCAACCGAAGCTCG : does PBM binding z-score equal or exceed 0.6?
RESULT: n

QUERY: Identify whether the reported PBM binding z-score of the following sequence is 0.6 or greater: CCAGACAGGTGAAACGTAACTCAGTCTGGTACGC
RESULT: n

QUERY: Threshold query (PBM binding z-score >= 0.6) on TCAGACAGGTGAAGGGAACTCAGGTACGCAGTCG
RESULT: y

QUERY: Please indicate if the recorded PBM binding z-score for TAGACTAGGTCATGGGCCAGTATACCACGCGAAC meets or exceeds 0.6.
RESULT: y

QUERY: Please indicate if the recorded PBM binding z-score for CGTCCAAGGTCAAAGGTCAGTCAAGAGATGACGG meets or exceeds 0.6.
RESULT: y

QUERY: Does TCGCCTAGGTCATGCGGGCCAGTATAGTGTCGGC have a reported PBM binding z-score of at least 0.6?
RESULT: y

QUERY: Test whether the sequence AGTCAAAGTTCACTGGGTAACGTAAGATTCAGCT records PBM binding z-score of 0.6 or higher.
RESULT: y

QUERY: Check if PBM binding z-score >= 0.6 (inclusive). Item: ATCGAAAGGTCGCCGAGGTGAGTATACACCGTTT
RESULT: y

Values were extracted from the supplement of paper PMC6555819.
